# experimentalTarget: HIV-1 Env of pseudovirus CNE52 (HIV-1)
# methodDescription: cell-based or functional assay
measuredQuantity: neutralization IC50

binder="MS-72 (antibody, V domains shown) VH: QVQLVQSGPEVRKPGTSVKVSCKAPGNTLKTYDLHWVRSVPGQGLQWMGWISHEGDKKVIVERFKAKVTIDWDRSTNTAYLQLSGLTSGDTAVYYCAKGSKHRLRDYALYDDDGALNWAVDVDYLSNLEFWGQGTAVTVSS VL: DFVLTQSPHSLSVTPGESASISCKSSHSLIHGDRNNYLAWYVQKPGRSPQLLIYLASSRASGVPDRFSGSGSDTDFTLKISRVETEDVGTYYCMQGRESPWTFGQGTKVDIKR" measuredquantity="neutralization IC50" readoutvalue="0.302 µg/mL"
binder="MS-79 (antibody, V domains shown) VH: QVQLVQSGPEVRKPGTSVKVSCKAPGNTLKTYDLHWVRSVPGQGLQWMGWISHEGDKKVIVERFKAKVTITWDRSTNTAYLQLSGLTSGDTAVYYCAKGSKHRLRDYALYDDDGALNWAVDVDYLSNLEFWGQGTAVTVSS VL: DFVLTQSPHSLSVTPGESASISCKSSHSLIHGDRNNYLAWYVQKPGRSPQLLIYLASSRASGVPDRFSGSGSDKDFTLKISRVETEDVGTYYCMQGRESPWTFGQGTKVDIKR" measuredquantity="neutralization IC50" readoutvalue="2.42 µg/mL"
binder="MS-92 (antibody, V domains shown) VH: QVQLVQSGPEVRKPGTSVKVSCKAPGNTLKTYDLHWVRSVPGQGLEWMGWISHEGDKKVIVERFKAKVTIDRDRSTNTAYLQLSGLRSGDTAVYYCAKGSKHRLRDYALYDDDGALNWAVDVDYLSNLEFWGQGTAVTVSS VL: DIVLTQSPHSLSVTPGESASISCKSSHSLIHGDRNNYLAWYVQKPGRSPQLLIYLASSRASGVPDRFSGSGSDKDFTLKISRVETEDVGTYYCMQGRESPWTFGQGTKVDIKR" measuredquantity="neutralization IC50" readoutvalue="3.92 µg/mL"
